Here, each record is paired with measured Emax data.
Target: glucocorticoid receptor (Homo sapiens, UniProt P04150)
Sequence (P04150 whole entry): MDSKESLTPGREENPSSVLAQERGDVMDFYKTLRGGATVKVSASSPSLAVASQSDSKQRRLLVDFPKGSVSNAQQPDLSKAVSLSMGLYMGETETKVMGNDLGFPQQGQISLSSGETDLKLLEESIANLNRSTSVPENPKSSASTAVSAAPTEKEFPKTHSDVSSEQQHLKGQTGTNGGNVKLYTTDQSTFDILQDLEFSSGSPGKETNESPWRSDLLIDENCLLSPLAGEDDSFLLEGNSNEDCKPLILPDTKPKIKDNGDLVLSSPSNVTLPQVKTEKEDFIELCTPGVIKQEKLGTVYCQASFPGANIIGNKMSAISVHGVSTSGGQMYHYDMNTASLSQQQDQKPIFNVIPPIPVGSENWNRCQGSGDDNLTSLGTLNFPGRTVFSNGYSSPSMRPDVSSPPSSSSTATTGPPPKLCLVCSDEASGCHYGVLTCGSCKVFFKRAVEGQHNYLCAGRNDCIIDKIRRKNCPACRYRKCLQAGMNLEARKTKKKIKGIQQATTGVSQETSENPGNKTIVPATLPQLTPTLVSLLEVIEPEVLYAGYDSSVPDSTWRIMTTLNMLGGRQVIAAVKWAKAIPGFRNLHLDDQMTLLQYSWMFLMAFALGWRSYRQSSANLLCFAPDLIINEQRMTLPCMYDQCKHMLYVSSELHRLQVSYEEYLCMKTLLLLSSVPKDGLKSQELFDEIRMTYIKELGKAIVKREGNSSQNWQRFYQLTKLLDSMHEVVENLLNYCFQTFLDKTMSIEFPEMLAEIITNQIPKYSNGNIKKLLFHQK
Experiment: Assay for transactivation activity of the glucocorticoid agonists (MMTV-LTR renilla luciferase reporter)
Assay type: cell-based
Conditions: A549, A549 cells, 6 hour at 37° C., read-out: maximal response relative to Dexamethasone (100%), transactivation

| compound | Emax |
| --- | --- |
| CCC(CC)COC(=O)O[C@]1(C(=O)OCC#N)[C@H](C)C[C@H]2[C@@H]3C[C@H](F)C4=CC(=O)C=C[C@]4(C)[C@@]3(F)[C@@H](O)C[C@@]21C | < 40% |

Query compound follows.
Notebook: pull reported Emax for glucocorticoid receptor (Homo sapiens, UniProt P04150), entry CC[C@H]1CC[C@@H](OC(=O)O[C@]2(C(=O)OCC#N)[C@H](C)C[C@H]3[C@@H]4C[C@H](F)C5=CC(=O)C=C[C@]5(C)[C@@]4(F)[C@@H](O)C[C@@]32C)CC1 (relative stereo) < 40%
